B1: TPR t1 (parent)
chain: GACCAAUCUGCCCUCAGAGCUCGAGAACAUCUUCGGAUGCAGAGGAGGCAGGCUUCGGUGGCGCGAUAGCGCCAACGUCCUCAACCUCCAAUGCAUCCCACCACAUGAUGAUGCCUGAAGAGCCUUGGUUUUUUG

- Variants of: B1
- protocol notes: polymerase ribozyme fitness, log enrichment relative to wild type (log ratio); higher = more active; in vitro selection for triplet polymerase activity
polymerase ribozyme fitness (log ratio) values, listed per item

[
  {
    "mutation": "A41G A46U G63A C82U U87G",
    "polymerase ribozyme fitness (log ratio)": -2.41
  },
  {
    "mutation": "U9G G60A A90C C123U",
    "polymerase ribozyme fitness (log ratio)": 0.324
  },
  {
    "mutation": "A43U G63C",
    "polymerase ribozyme fitness (log ratio)": -2.12
  },
  {
    "mutation": "C62U C88G C114G",
    "polymerase ribozyme fitness (log ratio)": -3.23
  },
  {
    "mutation": "C40A C72G A119U U130C U131A",
    "polymerase ribozyme fitness (log ratio)": -1.75
  },
  {
    "mutation": "A43G G48U C114U",
    "polymerase ribozyme fitness (log ratio)": -2.07
  },
  {
    "mutation": "G42C G44U G63U C123A G128C",
    "polymerase ribozyme fitness (log ratio)": -3.33
  }
]
